target: Serine/threonine-protein kinase PLK1 (Homo sapiens, UniProt P53350)
Sequence (P53350 whole entry): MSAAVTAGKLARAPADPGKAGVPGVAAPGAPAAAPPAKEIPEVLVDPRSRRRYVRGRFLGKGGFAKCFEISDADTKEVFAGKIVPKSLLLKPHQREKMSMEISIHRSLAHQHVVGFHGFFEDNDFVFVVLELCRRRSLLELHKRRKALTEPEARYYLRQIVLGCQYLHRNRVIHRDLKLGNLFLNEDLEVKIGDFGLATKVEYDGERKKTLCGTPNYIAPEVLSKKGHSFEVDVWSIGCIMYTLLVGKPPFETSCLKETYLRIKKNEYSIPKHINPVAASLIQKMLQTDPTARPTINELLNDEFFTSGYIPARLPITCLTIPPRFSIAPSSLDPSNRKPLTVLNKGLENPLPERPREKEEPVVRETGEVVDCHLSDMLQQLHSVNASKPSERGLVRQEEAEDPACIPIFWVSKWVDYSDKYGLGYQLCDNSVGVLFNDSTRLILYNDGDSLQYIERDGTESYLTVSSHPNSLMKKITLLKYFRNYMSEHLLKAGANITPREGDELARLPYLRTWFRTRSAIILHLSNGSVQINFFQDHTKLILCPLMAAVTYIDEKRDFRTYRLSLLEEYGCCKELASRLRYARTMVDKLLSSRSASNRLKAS
Parameter: pIC50
Scale: negative log10 of molar concentration, which is what pIC50 denotes.

Bench note: what pIC50 did CCn1c(=O)/c(=C/Nc2cccc(CCN3CCCC3)c2)s/c1=C(\C#N)C(=O)NCC(F)(F)F show?
7.72

###

target: Dual specificity tyrosine-phosphorylation-regulated kinase 1A (Homo sapiens, UniProt Q13627); experiment: Inhibition of recombinant human GST-tagged DYRK1A expressed in Escherichia coli using Woodtide as substrate in presence of [gamma-33P] ATP incubated for 30 mins by scintillation counter analysis
Parameter: IC50 (nM)
State the answer as a number, implicitly in nM.

What value of measured IC50 is listed for COc1ccc(/C=C2\SC(NCCCN3CCN(CCCNC4=NC(=O)/C(=C/c5ccc(OC)cc5)S4)CC3)=NC2=O)cc1 ?
40

###

system: B16-F10; assay: Antiproliferative activity against mouse B16-F10 cells assessed as reduction in cell proliferation incubated for 4 days by crystal violet based assay; assay type: functional; details: B16-F10, 96 h
Parameter: IC50 (nM)
Hi! Could you send only the number? It should be in nM, unit omitted.

Value wanted: IC50 (B16-F10) of entry CCn1c(=O)/c(=C/Nc2cccc(CCN3CCCC3)c2)s/c1=C(\C#N)C(=O)NCC(F)(F)F
200

###

test: Inhibition of beta-lactamase P99 (unknown origin) using cephalosporin nitrocefin as substrate preincubated for 10 mins followed by substrate addition by spectrophotometric analysis; parameters: species or system Bacteria
Parameter: IC50 (µM)
Output spec: scalar in µM, unitless text.

Endpoint output: IC50 of O=C1NC(=S)S/C1=C1\C(=O)Nc2ccccc21 . Value?
2600

###

target: UniProtKB O39930
Sequence (O39930 whole entry): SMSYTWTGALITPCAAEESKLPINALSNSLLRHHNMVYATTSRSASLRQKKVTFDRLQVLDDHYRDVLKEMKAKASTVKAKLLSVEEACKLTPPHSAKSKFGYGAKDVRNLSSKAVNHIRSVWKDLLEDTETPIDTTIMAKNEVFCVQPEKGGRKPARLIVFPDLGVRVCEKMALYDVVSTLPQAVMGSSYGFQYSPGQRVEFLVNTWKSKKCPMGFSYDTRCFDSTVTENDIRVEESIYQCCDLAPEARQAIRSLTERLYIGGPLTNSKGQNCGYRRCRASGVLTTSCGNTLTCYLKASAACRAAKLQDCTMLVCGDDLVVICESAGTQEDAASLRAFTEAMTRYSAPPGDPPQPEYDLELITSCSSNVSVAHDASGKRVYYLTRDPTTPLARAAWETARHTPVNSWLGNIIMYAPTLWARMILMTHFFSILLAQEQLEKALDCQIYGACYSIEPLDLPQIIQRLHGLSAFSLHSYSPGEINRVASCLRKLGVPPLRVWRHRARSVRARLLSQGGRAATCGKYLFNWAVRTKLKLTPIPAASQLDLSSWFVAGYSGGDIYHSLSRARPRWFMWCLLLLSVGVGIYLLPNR
Parameter: IC50
Numeric answer plus unit only.

For the compound Cc1ccc(S(=O)(=O)NC2=NC(=O)/C(=C/c3ccc(C)o3)S2)cc1 , what IC50 is on record?
2 µM
